Tested on: A549 NSCLC
Assay: NCI tumour cell line growth inhibition, 48 h
Measured attribute: GI50

Past entries and their recorded results:
>>> assay_value("Cc1cc(NN=C(c2ccc(O)cc2)c2ccc(O)cc2)c([N+](=O)[O-])cc1[N+](=O)[O-]")
"2470 nM"
>>> assay_value("Cn1cnnc1[S-].[Au+].c1ccc([PH+](c2ccccc2)c2ccccc2)cc1")
"2920 nM"
>>> assay_value("CCc1ccc2c(c1)N(CCO)C1=C(C(=O)OC1)C2c1cc(OC)c(OC)c(OC)c1 (stereo unspecified)")
"236 nM"

Exam item: Entry under review: CCOC(=O)c1c(NC(=O)c2ccc(Cl)cc2)sc2c(CN(C)C)c(O)ccc12 . Reported GI50?
Marked response: 8070 nM

Exam item: Same lookup for Cc1cc(S(N)(=O)=O)c(S/C(=N\NS(=O)(=O)c2ccccc2)c2ccc(Cl)cc2)cc1Cl , please.
Marked response: > 100000 nM

Exam item: Same lookup for Nc1ccccc1C#Cc1ccccc1C#Cc1cccs1 , please.
Marked response: 16900 nM

* * *

Entries and their TGI
Tested on: HCC-2998 colon
Assay: NCI tumour cell line growth inhibition, 48 h
Give the quantity in µM, number only.

>>> assay_value("CN(C)c1ccc(C(O)C2=CC(=O)c3ccccc3C2=O)cc1 (configuration not stated)")
38.7
>>> assay_value("C=C1C(O)C2(O)OCC34C(CC5C(C)=CC(=O)C(O)C5(C)C23)OC(=O)C(OC(=O)C/C=C/CCCCCCCC)C14 (configuration not stated)")
0.0308
>>> assay_value("COc1ccc(-c2c(N)noc2-c2cc(OC)c3c(c2)OCCO3)cc1")
0.902

Exam item: What TGI appears in the records for this compound with HCC-2998 colon? CN=c1sc2nc(C#N)c(C#N)nc2n1C
Marked response: 55.8

Exam item: Same lookup for COc1cc(/C=C2\SC(N3CCCCC3)=NC2=O)ccc1OCCCCCCOc1ccc(/C=C2\SC(N3CCCCC3)=NC2=O)cc1OC , please.
Marked response: 27

* * *

Entries and their TGI
Test system: SF-268 CNS
Assay: NCI tumour cell line growth inhibition, 48 h
Where a SMILES comes first, the peptide text is derived from it. The star is where a group is joined. Boc = CC(C)(C)OC(=O)*; nBu = CCCC*

>>> assay_value("COc1ccccc1C(=O)N(Cc1ccccc1)c1ccc(Cl)c(C(=O)OC(C)C)c1")
"> 100 µM"

Exam item: What TGI appears in the records for this molecule with SF-268 CNS? Cc1nn(C(=O)c2ccncc2)c2c1C(c1ccccc1[N+](=O)[O-])SC(N)=N2 (stereo unspecified)
Marked response: > 10 µM

Exam item: Same lookup for CCCCOc1ccc(CC(NC(=O)OC(C)(C)C)C(=O)NC(C)C(=O)NC(Cc2ccccc2)C(=O)NCC(N)=O)cc1 (stereo unspecified) (Boc-Y(nBu)AFG-NH2; configuration not given here) , please.
Marked response: > 100 µM

Exam item: Same lookup for CC(O)[C@H](NC(=O)N[C@@H](CC(N)=O)c1nc(N2CCNCC2)no1)C(=O)O (stereo partly specified) , please.
Marked response: > 100 µM

Exam item: Same lookup for NC(=O)[N+](=CC(=S)Nc1ccccc1Cl)C(N)=O , please.
Marked response: > 100 µM

Exam item: Same lookup for O=C(Cc1nc2ccccc2[nH]c1=O)c1c[nH]c2ccccc12 , please.
Marked response: > 100 µM

Exam item: Same lookup for CCCCC1(C(NC(=O)c2ccccc2Cl)c2ccncc2)C(=O)N(c2ccccc2)N(c2ccccc2)C1=O (stereo unspecified) , please.
Marked response: > 100 µM

Exam item: Same lookup for COc1cc(NC2CCCCC2O)c2nc(-c3ccc(Cl)cc3)ccc2c1 (stereo unspecified) , please.
Marked response: > 100 µM

Exam item: Same lookup for CCOC(=O)c1c(CN2CCN(C)CC2)nc2ccc(Cl)cc2c1-c1ccccc1 , please.
Marked response: 23.5 µM

Exam item: Same lookup for Cc1c(-c2ccccc2)[nH]c2cn[nH]c(=O)c12 , please.
Marked response: > 100 µM

Exam item: Same lookup for COc1cccc(/C=N\NC(=O)C(C)SC(C)C(=O)N/N=C/c2cccc(OC)c2)c1 (stereo unspecified) , please.
Marked response: 97.5 µM

Exam item: Same lookup for COc1ccc(N2C(=O)C(=O)C3(CCCCC3)C2=O)c2ccccc12 , please.
Marked response: > 10 µM

Exam item: Same lookup for COc1ccccc1N/C(SCc1ccccc1)=C(/C(Cl)=C(Cl)Cl)[N+](=O)[O-] , please.
Marked response: 39 µM
